Reported pKd values are given for each entry in this list.
# subject.of.test: HLA-A*02:01
# protocol.details: IEDB peptide-MHC binding, purified MHC/competitive/radioactivity; filed as Kd, often an IC50 or EC50 that approximates it; bounds were set here for any values at or beyond the usual limits of such assays
# conditions: source organism: Dengue virus 1 Nauru/West Pac/1974
pKd: −log10 of the molar value.
measured.quantity: pKd

| sequence.content | value |
| --- | --- |
| GLAMGIMML | 7.11 |
| AMLDVDLHPA | 8.25 |

====

Here, each record is paired with measured Kd data.
# subject.of.test: HLA-B*07:02
# protocol.details: IEDB peptide-MHC binding, purified MHC/competitive/radioactivity; filed as Kd, often an IC50 or EC50 that approximates it; bounds were set here for any values at or beyond the usual limits of such assays
# conditions: source organism: SARS coronavirus Tor2

| sequence.content | unit.annotation | Kd |
| --- | --- | --- |
| LPYPDPSRIL | nM | 3790 |
| APVSAMVRM | nM | 158 |
| KPTESACSSL | nM | 58.4 |
| IPKGIMMNV | nM | 128 |
| FPLKLRGTAV | nM | 135 |
